Target: Cholinesterase (Equus caballus, UniProt P81908)
Sequence (P81908 whole entry): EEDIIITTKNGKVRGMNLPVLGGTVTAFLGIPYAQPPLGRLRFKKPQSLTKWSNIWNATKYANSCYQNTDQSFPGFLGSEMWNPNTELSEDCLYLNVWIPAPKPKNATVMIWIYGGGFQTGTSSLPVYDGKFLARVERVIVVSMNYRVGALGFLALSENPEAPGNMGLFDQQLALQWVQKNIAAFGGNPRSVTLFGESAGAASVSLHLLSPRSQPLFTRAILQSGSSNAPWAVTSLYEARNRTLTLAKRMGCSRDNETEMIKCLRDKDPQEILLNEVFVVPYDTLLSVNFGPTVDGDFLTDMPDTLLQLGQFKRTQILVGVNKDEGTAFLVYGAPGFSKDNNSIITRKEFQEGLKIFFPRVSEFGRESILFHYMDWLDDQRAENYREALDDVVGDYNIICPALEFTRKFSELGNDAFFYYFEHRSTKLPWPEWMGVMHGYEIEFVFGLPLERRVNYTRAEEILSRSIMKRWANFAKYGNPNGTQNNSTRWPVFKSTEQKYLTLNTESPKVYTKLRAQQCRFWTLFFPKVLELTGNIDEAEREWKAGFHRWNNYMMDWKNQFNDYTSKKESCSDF
propertyName: IC50 (µM)
Reply numerically in µM, unit not repeated.

{"smi": "O=C(/C=C/c1cc2ccccc2[nH]1)Nc1ccc2nc3n(c(=O)c2c1)CCC3", "quantitativeResult": 4.47}
{"smi": "O=C(Nc1ccc2nc3n(c(=O)c2c1)CCC3)c1cc2ccccc2o1", "quantitativeResult": 1.85}
{"smi": "Cc1cc2nc3n(c(=O)c2cc1NC(=O)c1cc2cc(F)ccc2[nH]1)CCC3", "quantitativeResult": 1.72}
{"smi": "COc1ccc2[nH]c(C(=O)Nc3cc4c(=O)n5c(nc4cc3C)CCC5)cc2c1", "quantitativeResult": 5.23}
{"smi": "O=C(Nc1ccc2nc3n(c(=O)c2c1)CCC3)c1cc2cc(F)ccc2[nH]1", "quantitativeResult": 0.75}

# return IC50 for O=C(Cc1cc2ccccc2[nH]1)Nc1ccc2nc3n(c(=O)c2c1)CCC3 , test system: Cholinesterase (Equus caballus, UniProt P81908)
1.38

* * *

The following molecules each carry a recorded pIC50 for UniProt P05067.
Sequence (P05067 whole entry): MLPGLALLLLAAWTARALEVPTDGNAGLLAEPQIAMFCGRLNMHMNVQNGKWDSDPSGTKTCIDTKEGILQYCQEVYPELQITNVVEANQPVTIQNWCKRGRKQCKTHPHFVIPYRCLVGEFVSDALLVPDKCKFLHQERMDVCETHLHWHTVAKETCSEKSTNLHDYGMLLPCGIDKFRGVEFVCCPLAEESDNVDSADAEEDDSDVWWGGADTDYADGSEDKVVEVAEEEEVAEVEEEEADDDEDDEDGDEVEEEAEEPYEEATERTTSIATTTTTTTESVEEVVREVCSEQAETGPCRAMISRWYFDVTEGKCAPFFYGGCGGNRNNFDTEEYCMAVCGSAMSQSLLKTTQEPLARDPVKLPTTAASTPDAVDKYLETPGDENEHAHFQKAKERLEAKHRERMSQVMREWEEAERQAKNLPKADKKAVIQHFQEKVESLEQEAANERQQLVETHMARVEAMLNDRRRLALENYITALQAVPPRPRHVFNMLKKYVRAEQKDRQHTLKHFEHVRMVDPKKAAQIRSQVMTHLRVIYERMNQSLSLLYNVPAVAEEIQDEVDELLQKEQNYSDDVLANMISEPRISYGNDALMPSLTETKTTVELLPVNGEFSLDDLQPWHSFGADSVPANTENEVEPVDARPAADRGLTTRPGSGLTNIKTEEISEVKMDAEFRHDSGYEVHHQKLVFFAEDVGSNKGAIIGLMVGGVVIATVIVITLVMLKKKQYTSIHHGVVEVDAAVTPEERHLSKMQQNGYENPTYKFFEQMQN
The scale used: pIC50 is minus the common logarithm of the concentration in molar units.

Here are 4 molecules together with their reported answers.
{"smi": "O=C(/C=C/c1cc2ccccc2[nH]1)Nc1ccc2nc3n(c(=O)c2c1)CCC3", "pIC50": 5.51}
{"smi": "Cc1cc2nc3n(c(=O)c2cc1NC(=O)c1cc2cc(F)ccc2[nH]1)CCC3", "pIC50": 5.49}
{"smi": "O=C(Nc1ccc2nc3n(c(=O)c2c1)CCC3)c1cc2ccccc2s1", "pIC50": 5.64}
{"smi": "Cc1cc2nc3n(c(=O)c2cc1NC(=O)c1cc2cc(Cl)ccc2[nH]1)CCC3", "pIC50": 5.29}

Please look at the following molecule next.
# return pIC50 for O=C(Nc1ccc2nc3n(c(=O)c2c1)CCC3)c1cc2ccccc2[nH]1 , test system: UniProt P05067
5.67

* * *

The following compounds each carry a recorded IC50 for Cholinesterase (Equus caballus, UniProt P81908).
Reply numerically in nM, unit not repeated.

Please give measured IC50 of the following entry: O=C(Nc1ccc2nc3n(c(=O)c2c1)CCC3)c1cc2ccccc2[nH]1
900

Please give measured IC50 of the following entry: O=C(Nc1ccc2nc3n(c(=O)c2c1)CCC3)c1cc2cc(Cl)ccc2[nH]1
770

Please give measured IC50 of the following entry: COc1ccc2[nH]c(C(=O)Nc3ccc4nc5n(c(=O)c4c3)CCC5)cc2c1
150

Please give measured IC50 of the following entry: Cc1cc2nc3n(c(=O)c2cc1NC(=O)c1cc2cc(Cl)ccc2[nH]1)CCC3
4670

Please give measured IC50 of the following entry: O=C(Nc1ccc2nc3n(c(=O)c2c1)CCC3)c1cc2ccccc2s1
1900

Please give measured IC50 of the following entry: O=C(CCCc1cc2ccccc2[nH]1)Nc1ccc2nc3n(c(=O)c2c1)CCC3
1600
